hPDGF-BB NIH-3T3 Proliferation IC50 reference
- measured_on: Human PDGF-BB (human, UniProt P01127 82-190)
- Sequence (P01127 82-190 limits assumed): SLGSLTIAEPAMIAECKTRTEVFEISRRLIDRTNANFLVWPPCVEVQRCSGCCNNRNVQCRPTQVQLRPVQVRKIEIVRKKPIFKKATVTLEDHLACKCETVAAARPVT
- experiment_description: cell-based or functional assay
Answer with the value and then the unit.

CL-33805-IgG (antibody, V domains shown) VH: EVTLRESGPALVKPTQTLTLTCTFSGFSLSTYGMGVGWIRQPPGKALEWLANIWWDDDKYYNPSLKNRLTISKDTSKNQVVLTMTNMDPVDTATYYCARIESHWWSYAFDYWGQGTMVTVSS VL: EIVLTQSPGTLSLSPGERATLSCERSSGSNYDTYVSWYQQKPGQAPRLLIYADDLRASGIPDRFSGSGSGTDFTLTISRLEPEDFAVYYCQSYGIETDIVFGGGTKVEIK    0.039 nM
CL-33706-IgG (antibody, V domains shown) VH: EVTLRESGPALVKPTQTLTLTCTFSGFSLSTYGMGVGWIRQPPGKALEWLANIWWDDDKYYNPSLKNRLTISKDTSKNQVVLTMTNMDPVDTATYYCARIETMGPKYSFDYWGQGTMVTVSS VL: EIVLTQSPGTLSLSPGERATLSCRASSGSIWYSFVSWYQQKPGQAPRLLIYADDQRASGIPDRFSGSGSGTDFTLTISRLEPEDFAVYYCQSYGINIDVVFGGGTKVEIK    0.035 nM

Data request: Sample CL-33699-IgG (antibody, V domains shown) VH: EVTLRESGPALVKPTQTLTLTCTFSGFSLSTYGMGIGWIRQPPGKALEWLANIWWDDDKYYNPSLKNRLTISKDTSKNQVVLTMTNMDPVDTATYYCARIESMGPKYAFDYWGQGTMVTVSS VL: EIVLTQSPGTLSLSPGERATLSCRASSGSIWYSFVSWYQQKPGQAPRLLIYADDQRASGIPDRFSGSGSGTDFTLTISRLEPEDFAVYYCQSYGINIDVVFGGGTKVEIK — what was its hPDGF-BB NIH-3T3 Proliferation IC50?
Data returned: 0.033 nM
